system: Plasmodium berghei; experiment: Antimalarial activity against Plasmodium berghei ANKA infected Swiss CD1 mice (Mus musculus) assessed as reduction of parasitemia at 30 mg/kg, perorally administered after 3 hrs of infection for 3 days measured on day 4 relative to control; type: functional; details: route oral
MEASUREMENT_TYPE: inhibition in vivo at 30 mg/kg

1) CO[C@H]1O[C@@H]2O[C@@]3(C)CC[C@H]4[C@H](C)CC[C@@H]([C@H]1C)[C@@]24OO3: 100%
2) C[C@H]1[C@H](c2ccc(CN3CCN(C)CC3)n2C)O[C@@H]2O[C@@]3(C)CC[C@H]4[C@H](C)CC[C@@H]1[C@@]24OO3: 100%
3) C[C@H]1[C@H](c2ccc(CN3CCOCC3)n2C)O[C@@H]2O[C@@]3(C)CC[C@H]4[C@H](C)CC[C@@H]1[C@@]24OO3: 100%
